# tgt: HTH-type transcriptional regulator EthR (Mycobacterium tuberculosis)
# protocol description: Inhibition of EthR in Mycobacterium tuberculosis H37Rv-GFP infected in mouse Raw 264.7 cells assessed as boosting of 0.1 uM ethionamide-induced microbial growth inhibition at 10 uM by automated fluorescent confocal microscopy
# Type: cell-based
property name: growth inhibition (GI) (%)
Numeric only. Scale: %

Here are 3 compounds together with their reported answers.
{"smiles data": "O=C(COc1cccc(Oc2ccccc2)c1)Nc1ccc(Cl)c(Cl)c1", "property name": "growth inhibition (GI)", "observed value": -1.6}
{"smiles data": "COc1cccc(OCC(=O)Nc2ccc(Cl)cc2)c1", "property name": "growth inhibition (GI)", "observed value": 92.6}
{"smiles data": "COc1ccc(OCC(=O)Nc2ccc(Cl)c(Cl)c2)cc1", "property name": "growth inhibition (GI)", "observed value": -0.6}

Let us move to another entry and its growth inhibition (GI).
[in] What value of growth inhibition (GI) has been recorded for this entry: O=C(COc1ccc(-c2ccccc2)cc1)Nc1ccc2c(c1)OCO2
[out] -3

###

# tgt: HTH-type transcriptional regulator EthR (Mycobacterium smegmatis (strain ATCC 700084 / mc(2)155))
# Sequence (A0R666 whole entry): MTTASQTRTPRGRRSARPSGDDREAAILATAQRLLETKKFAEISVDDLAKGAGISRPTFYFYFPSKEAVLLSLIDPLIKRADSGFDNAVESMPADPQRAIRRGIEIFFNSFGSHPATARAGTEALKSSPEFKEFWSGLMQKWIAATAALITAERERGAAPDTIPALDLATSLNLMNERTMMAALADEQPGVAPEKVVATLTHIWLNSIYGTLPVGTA
# protocol description: Binding affinity to Mycobacterium smegmatis mc2 155 EthR assessed as protein thermal unfolding at 20 uM by SYPRO Orange dye based thermal shift assay
# measurement context: Mycolicibacterium smegmatis MC2 155
The source made the active and inactive calls. The rule behind the calls is not given here.

{"smiles data": "COc1cccc(O)c1", "inhibition": "Active"}
{"smiles data": "Oc1ccc(C(F)(F)F)cc1", "inhibition": "Active"}
{"smiles data": "Cc1ccc2cc(NC(=O)CCl)ccc2n1", "inhibition": "Active"}

###

Documented IC50 across a set of compounds
# tgt: HTH-type transcriptional regulator EthR (Mycobacterium smegmatis (strain ATCC 700084 / mc(2)155))
# protocol description: Inhibition at EthR in Mycobacterium smegmatis mc2 155 assessed as reactivation of beta-glucuronidase activity measured over 48 hrs by Spectrophotometry

Guide cases for IC50, answers given:
{"smiles data": "Cc1ccc(OCC(=O)Nc2ccc(-c3nc4ncccc4o3)cc2)c(C)c1", "IC50": "< 10 µM"}
{"smiles data": "Cc1ccc(-n2nc3ccc(NC(=O)COc4ccccc4C)cc3n2)cc1", "IC50": "2.9 µM"}

Please look at the following compound next.
[in] # get_value(readout='IC50', item= O=C(COc1ccc(Cl)cc1Cl)Nc1ccc2nc3n(c(=O)c2c1)CCCC3 )
[out] < 10 µM

###

# tgt: UniProtKB P9WMC1
# Sequence (P9WMC1 whole entry): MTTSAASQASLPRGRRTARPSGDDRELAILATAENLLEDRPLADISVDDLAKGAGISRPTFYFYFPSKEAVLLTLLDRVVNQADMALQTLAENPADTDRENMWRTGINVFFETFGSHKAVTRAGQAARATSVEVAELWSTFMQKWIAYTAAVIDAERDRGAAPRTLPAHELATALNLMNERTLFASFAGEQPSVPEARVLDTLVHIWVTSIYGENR
# protocol description: Inhibition of EthR in Mycobacterium tuberculosis H37Rv-GFP infected in mouse Raw 264.7 cells assessed as boosting of 0.1 uM ethionamide-induced microbial growth inhibition at 10 uM by automated fluorescent confocal microscopy
# Type: cell-based
Assign 1.0 whenever growth inhibition (GI) does not fall below 30%; assign 0.0 whenever it does.

Example results:
{"smiles data": "O=C(COc1ccc(Cl)c(Cl)c1)Nc1ccc(C(F)(F)F)cc1", "tgt": "UniProtKB P9WMC1", "label": 0.0}
{"smiles data": "COc1cccc(OCC(=O)Nc2ccc(Oc3ccccc3)cc2)c1", "tgt": "UniProtKB P9WMC1", "label": 0.0}
{"smiles data": "N#Cc1ccc(NC(=O)COc2cccc(Oc3ccccc3)c2)cc1", "tgt": "UniProtKB P9WMC1", "label": 0.0}
{"smiles data": "COc1cccc(OCC(=O)Nc2ccc(Cl)c(Cl)c2)c1", "tgt": "UniProtKB P9WMC1", "label": 0.0}

[in] Check if growth inhibition (GI) >= 30% (inclusive). Item: O=C(COc1ccc(C(F)(F)F)cc1)Nc1ccc(Cl)c(Cl)c1
[out] 0.0

[in] Can you handle Cc1ccc2cc(NC(=O)COc3ccccc3F)ccc2n1 next?
[out] 1.0

###

# maps each entry to its ΔTm
# tgt: HTH-type transcriptional regulator EthR (Mycobacterium smegmatis (strain ATCC 700084 / mc(2)155)) (UniProt A0R666)
# Sequence (A0R666 whole entry): as the sequence (A0R666 whole entry) above
# protocol description: Binding affinity to Mycobacterium smegmatis mc2 155 EthR assessed as protein thermal unfolding at 20 uM by SYPRO Orange dye based thermal shift assay
# measurement context: Mycolicibacterium smegmatis MC2 155
Just the number plus its unit, please.

{"smiles data": "O=C(COc1ccc(Cl)c(Cl)c1)Nc1ccc(C(F)(F)F)cc1", "ΔTm": "7.5 °C"}
{"smiles data": "O=C(COc1ccc(F)c(F)c1)Nc1ccc(Oc2ccccc2)cc1", "ΔTm": "5.7 °C"}
{"smiles data": "O=C(COc1ccc(F)c(F)c1)Nc1ccc(C(F)(F)F)cc1", "ΔTm": "5.6 °C"}

[in] Request the reported ΔTm associated with COc1cccc(OCC(=O)Nc2ccc(-c3nc4ccccc4s3)cc2)c1
[out] 9.9 °C

[in] Try the compound COc1cccc(OCC(=O)Nc2ccc(Cl)c(Cl)c2)c1
[out] 6.8 °C

[in] Check Cc1ccc(OCC(=O)Nc2ccc(Cl)c(Cl)c2)cc1 too.
[out] 6.8 °C

[in] Param item: N#Cc1cccc(OCC(=O)Nc2ccc(-c3nc4ccccc4s3)cc2)c1
[out] 8.1 °C

[in] Repeat with COc1cccc(OCC(=O)Nc2ccc(Oc3ccccc3)cc2)c1
[out] 6.7 °C

[in] Ok, now N#Cc1ccc(NC(=O)COc2cccc(Oc3ccccc3)c2)cc1
[out] 6.7 °C

[in] Next entry: COc1cccc(OCC(=O)Nc2ccc3nc(C)ccc3c2)c1
[out] 6.6 °C

[in] Lookup N#Cc1cccc(NC(=O)COc2cccc(Oc3ccccc3)c2)c1
[out] 5.7 °C

[in] Further, for COc1cccc(SCC(=O)Nc2ccc(-c3nc4ccccc4s3)cc2)c1 ?
[out] 6.2 °C

[in] And what about the compound COc1ccc(OCC(=O)Nc2ccc(Cl)c(Cl)c2)cc1 ?
[out] 6.1 °C

[in] Now this one: O=C(COc1cccc(Oc2ccccc2)c1)Nc1ccccc1
[out] 6.1 °C

###

# tgt: HTH-type transcriptional regulator EthR (Mycobacterium smegmatis (strain ATCC 700084 / mc(2)155)) (UniProt A0R666)
# protocol description: Binding affinity to Mycobacterium smegmatis mc2 155 EthR assessed as protein thermal unfolding at 20 uM by SYPRO Orange dye based thermal shift assay
# measurement context: Mycolicibacterium smegmatis MC2 155
Activity calls are given as the source filed them. The calls are words filed in the database; no cut-off is given here.
Just give me one of these, please: 1 (yes) (active), 0 (no) (inactive)

{"smiles data": "COc1ccccc1NC(=O)CCl", "label": "0 (no)"}

[in] Recorded test call requested for O=C(CCl)N1CCCc2ccccc21
[out] 1 (yes)

[in] Try the molecule O=C(CCl)Nc1ccc2c(c1)OCO2
[out] 1 (yes)

###

growth inhibition (GI) reference
# tgt: HTH-type transcriptional regulator EthR (Mycobacterium tuberculosis)
# protocol description: Inhibition of EthR in Mycobacterium tuberculosis H37Rv-GFP infected in mouse Raw 264.7 cells assessed as boosting of 0.1 uM ethionamide-induced microbial growth inhibition at 10 uM by automated fluorescent confocal microscopy
# Assay type: cell-based
Your answer is read as %, so omit the unit and give the number.

Solved cases below.
{"smiles data": "O=C(COc1ccc(F)c(F)c1)Nc1ccc(C(F)(F)F)cc1", "tgt": "HTH-type transcriptional regulator EthR (Mycobacterium tuberculosis)", "growth inhibition (GI) / %": -12.5}
{"smiles data": "COc1cccc(OCC(=O)Nc2ccc(-c3nc4ccccc4s3)cc2)c1", "tgt": "HTH-type transcriptional regulator EthR (Mycobacterium tuberculosis)", "growth inhibition (GI) / %": 67.6}
{"smiles data": "O=C(COc1ccc(C(F)(F)F)cc1)Nc1ccc2c(c1)OCO2", "tgt": "HTH-type transcriptional regulator EthR (Mycobacterium tuberculosis)", "growth inhibition (GI) / %": 1.4}
{"smiles data": "O=C(COc1ccc(F)c(F)c1)Nc1ccc(Oc2ccccc2)cc1", "tgt": "HTH-type transcriptional regulator EthR (Mycobacterium tuberculosis)", "growth inhibition (GI) / %": -13.5}
{"smiles data": "COc1cccc(OCC(=O)Nc2ccc3nc(C)ccc3c2)c1", "tgt": "HTH-type transcriptional regulator EthR (Mycobacterium tuberculosis)", "growth inhibition (GI) / %": 6.5}
{"smiles data": "O=C(COc1cccc(Oc2ccccc2)c1)Nc1ccc2c(c1)OCO2", "tgt": "HTH-type transcriptional regulator EthR (Mycobacterium tuberculosis)", "growth inhibition (GI) / %": 5.7}
{"smiles data": "COc1cccc(OCC(=O)Nc2ccc(-c3ccccc3)cc2)c1", "tgt": "HTH-type transcriptional regulator EthR (Mycobacterium tuberculosis)", "growth inhibition (GI) / %": -2.9}

Please examine the following record next.
[in] Tell me the measured growth inhibition (GI) of Cc1ccc(OCC(=O)Nc2ccc(Cl)c(Cl)c2)cc1 , please.
[out] -10.4

From: ChEMBL document CHEMBL2163226
